Structures can show the parent of a compound that is named as a salt.
outcome_measure: melting point

Request the reported melting point associated with `C[C@@H]1CCCN1CCCOc1c(Br)cc(-c2ccc(=O)[nH]n2)cc1Br`
165 to 167 °C

Request the reported melting point associated with C[C@@H]1CCCN1CCCOc1ccc2c(c1)CCc1cc(=O)[nH]nc1-2 (as salt: HCl)
289 to 292 °C

Request the reported melting point associated with O=c1cc(-c2ccc(OC3CCN(C4CCC4)CC3)nc2)cn[nH]1 (as salt: hydrochloride)
232 to 234 °C

Request the reported melting point associated with C[C@@H]1CCCN1CCCOc1ccc(C2=NNC(=O)CC2c2ccccn2)cc1 (stereo partly shown) (as salt: hydrochloride)
133 °C (dec.)

Request the reported melting point associated with CC1=NNC(=O)CC1c1ccc(OC2CCN(C3CCC3)CC2)cc1 (stereo not shown)
178 to 179 °C

Request the reported melting point associated with `C[C@@H]1CCCN1CCCOc1c(F)cc(-c2ccc(=O)[nH]n2)cc1F`
169 to 171 °C

Request the reported melting point associated with `Cc1onc2c(=O)[nH]nc(-c3ccc(OCCCN4CCC[C@H]4C)cc3)c12`
169 to 170 °C

Request the reported melting point associated with C[C@@H]1CCCN1CCCOc1ccc(-c2nn(Cc3ccc(Cl)cc3)c(=O)c3ccccc23)cc1 (as salt: HCl)
217 to 218 °C

Request the reported melting point associated with C[C@@H]1CCCN1CCCOc1ccc(C2=NNC(=O)C3CCC23)cc1 (stereo partly shown)
218 to 220 °C

Request the reported melting point associated with O=c1ccc(-c2ccccc2)nn1-c1ccc(OC2CCN(C3CCC3)CC2)nc1 (as salt: fumarate)
155 to 159 °C

Request the reported melting point associated with C[C@@H]1CCCN1CCCOc1ccc(C2=NN(c3ccccc3)C(=O)CC2)cc1 (as salt: HCl)
213 to 215 °C

Request the reported melting point associated with O=C1NN=C(c2ccc(OC3CCN(C4CCC4)CC3)cc2)C2CCCC12 (stereo not shown)
> 255 °C (dec.)

Request the reported melting point associated with CC1CC(c2ccc(OC3CCN(C4CCC4)CC3)cc2)=NNC1=O (stereo not shown) (as salt: HCl)
257 to 259 °C

Request the reported melting point associated with `C[C@@H](COc1ccc(-c2cn[nH]c(=O)c2)cc1)CN1CCCCC1`
160 to 163 °C

Request the reported melting point associated with `O=c1[nH]nc(-c2ccc(OCCCN3CCCCC3)cc2)c2c1CCC2`
134 °C (dec.)

Request the reported melting point associated with O=C1C2CC2C(c2ccc(OC3CCN(C4CCC4)CC3)cc2)=NN1c1ccc(F)cc1 (stereo not shown) (as salt: HCl)
147 to 149 °C
